# Study Target: Muscarinic acetylcholine receptor
# Type: cell membranes, Membrane
# Description: Inhibition of [3H]quinuclidinyl benzilate (QNB) binding from rat forebrain membranes in the presence of Zn
Below, each entry is listed alongside its reported IC50.

{"columns": ["Structure Smiles String", "IC50 (µM)"],
 "data": [
  ["Cc1cc2ccccc2n1Nc1ccncc1", 29],
  ["c1ccc2c(c1)ccn2Cc1ccncc1", 84],
  ["CCCN(c1ccnc2cc(Cl)ccc12)n1ccc2ccccc21.O=C(O)/C=C/C(=O)O", 180],
  ["c1ccc2nn(Nc3ccncc3)cc2c1", 128],
  ["O=C(O)/C=C/C(=O)O.c1ccc2c(c1)c1ccccc1n2Nc1ccncc1", 8.2],
  ["Brc1ccc2c(ccn2Nc2ccncc2)c1", 7.5]
]}

Origin of measurements: ChEMBL document CHEMBL1129670
